- Test system: OVCAR-5
- Procedure summary: NCI tumour cell line growth inhibition, 48 h
Activity calls are given as the source filed them. Rule as the data show it: active = GI50 up to about 1.1 µM and inactive = higher.
Outcome (select one): Yes (active), No (inactive)

Consider the worked cases shown below.
Compound	Class name
O=C(CSc1nnc(-c2ccccn2)s1)N/N=C/c1ccccc1	No
CCCCNC(=S)Nc1nc(C(=O)NNC(=O)c2ccccc2)cs1	No
CC1=C(C)C(=O)C2=C(OCCCO2)C1=O	No
CCOC(=O)c1ccc(/N=N/N(C)C(=O)C(C)N)cc1 (stereo unspecified)	No
COc1cc(/C=C\c2nnc(/C=C\c3ccc(O)c(OC)c3)s2)ccc1O	No

From here, focus on the item given below.
stdin: Query: recorded result category for CCN1C/C(=C\c2cc(OC)c(OC)c(OC)c2)C2=NN(c3ccccc3)C(c3cc(OC)c(OC)c(OC)c3)C2C1 (stereo unspecified) in this test
stdout: No

---

- Tested on: SK-MEL-5
- Procedure summary: NCI tumour cell line growth inhibition, 48 h
Calls of active or inactive are those of the source. Rule as the data show it: active = GI50 up to about 1.1 µM and inactive = higher.
Outcomes you can answer with include only these: t = active, f = inactive

Compound	Class name
C=CC[C@]12C=C(OC)[C@@H](O)[C@](OC)(C(c3cc(OC)c4c(c3)OCO4)[C@H]1C)[C@H]2OC(C)=O (stereo not given in full)	f
CCCc1nnc2sc(COc3cc(Cl)c(OCc4nn5c(CCC)nnc5s4)cc3Cl)nn12	f

stdin: Call for entry COc1cccc(-c2cc(=O)c3ccc(C)nc3[nH]2)c1 :
stdout: t

stdin: Status in this test for Cc1cc(=O)oc2c(C)c(O)ccc12 ?
stdout: f

stdin: Record lookup: outcome of this test for CC(=O)Nc1ccc(/N=C2\C(c3ccccc3)=C(SC3=C(c4ccccc4)/C(=N\c4ccc(NC(C)=O)cc4)c4ccccc43)c3ccccc32)cc1 ?
stdout: f

---

- Tested on: MOLT-4
- Procedure summary: NCI tumour cell line growth inhibition, 48 h
The source made the active and inactive calls. No stated cut-off is given here; in the data, active = GI50 up to about 1.1 µM and inactive = higher.
Thanks in advance; please answer with one of these: label 1 for active, label 0 for inactive

Below, 6 compounds whose answers are already recorded.
Compound	Class name
COc1ccc(-c2cc(O)c3ccc(C)nc3n2)cc1	label 0
CC(C)(C)C1CCC(=O)C(C(O)CC2CC(=O)N(c3ccccc3)C(=O)C2)C1 (stereo not given)	label 0
C=CCOc1cc2c(cc1C(C)c1ccc(OC)cc1)OCO2 (stereo not given)	label 1
COc1ccc(NC(=O)C(=O)C2NC(=S)NC2=O)c(OC)c1 (stereo not given)	label 0
CN(C)CC/C(=N\Nc1ccccc1)c1ccccc1	label 0
NCCCC(N)C(=O)O (stereo not given)	label 0

stdin: Tell me the recorded outcome of this test for Cc1ccc(N2C(=O)/C(=C3\SC(C(N)=O)=C(N)N3c3ccccc3)SC2=S)cc1 .
stdout: label 0

stdin: Check the results log: what was the call for COc1cc2c(cc1O)CC[n+]1cc3c(OC)c(OC)ccc3cc1-2 ?
stdout: label 0

stdin: // return assay outcome for CC1=C(C(=O)Nc2cc(F)c(F)cc2F)C(c2cccc([N+](=O)[O-])c2)C(C(=O)Nc2ccccc2C(F)(F)F)=C(C)N1 (stereo not given)
stdout: label 0

stdin: State the result this test recorded for O=C1NC(=S)NC(=O)C1C(c1ccc([N+](=O)[O-])cc1)C1C(=O)NC(=S)NC1=O.c1ccncc1 .
stdout: label 0

stdin: Answer briefly: the call reported for O=C(c1ccccc1)c1nc2ccc(Cl)cc2c2c1CCCO2 in this assay.
stdout: label 0

stdin: GET /call?item= C[C@]12CC[C@H]3[C@@H](CC=C4C[C@@H](N5CCCC5)CC[C@@]43C)[C@@H]1C[C@H](N1CCCCC1)[C@@H]2O returns the recorded outcome of this test.
stdout: label 0

stdin: Assay outcome for N#C/N=C(\NCCc1c[nH]c2ccccc12)NCc1ccccc1 : what was it?
stdout: label 0

stdin: Call for entry COC(=O)C1(C(=O)OC)N=C(C)OC1C(C)C (stereo not given) :
stdout: label 0

Taken from ChEMBL document CHEMBL1201862.
